- System: CD2F1 mice, L1210 leukemia ip, survival T/C
- test.method.notes: NCI In Vivo Anticancer Drug Screen. Data for tumor model L1210 Leukemia (intraperitoneal) in CD2F1 (CDF1) mice
- run.parameters: endpoint: mean survival time; dose: 100.0 mg/kg/injection; schedule: Q04DX003 (ip); vehicle: Klucel (hydroxypropylcellulose) (HPC); higher = longer survival
- Method: The antitumor activity of compounds was measured in mice bearing transplantable tumors. Survival or tumor size were measured and the results are expressed as the measurement made in the treated group (T) divided by the measurement made in the vehicle treated control group (C). The tumor model used in this assay is L1210 Leukemia (intraperitoneal) in CD2F1 (CDF1) mice
Inconclusive results and toxic doses are left out.

# molecule, T/C
measured = [
    ("COc1ccc(/C=C\\[N+](=O)[O-])cc1OC", "101 % of control"),
    ("Oc1ccc(C(c2ccc(O)cc2)C(Cl)(Cl)Cl)cc1", "101 % of control"),
    ("CC(=O)C1CCC2C3CC=C4CC(n5cc(C)c(=O)[nH]c5=O)CCC4(C)C3CCC12C (stereo unspecified)", "100 % of control"),
    ("CC[n+]1ccc(Cc2ccc([N+](=O)[O-])cc2)cc1", "105 % of control"),
    ("COc1ccc(NC(=O)Nc2nccs2)c(Cl)c1", "106 % of control"),
    ("CC(C)(C)CC(C)(C)c1ccc(OCCOc2ccc(C(=O)Nc3ccc([N+](=O)[O-])cc3)cc2)cc1", "96 % of control"),
]

###

Attribute: T/C
- Test system: CD2F1 mice, L1210 leukemia ip, survival T/C
- test.method.notes: NCI In Vivo Anticancer Drug Screen. Data for tumor model L1210 Leukemia (intraperitoneal) in CD2F1 (CDF1) mice
- run.parameters: endpoint: mean survival time; dose: 5.0 mg/kg/injection; schedule: Q01DX009 (ip); vehicle: saline; higher = longer survival
Toxic doses and inconclusive results are not listed.

# compound.smiles, assay.target, T/C
records = [
    ("CNC[C@@H](O)c1ccc(O)c(O)c1", "CD2F1 mice, L1210 leukemia ip, survival T/C", "104 % of control"),
    ("COc1ccc(/C=C/c2ccc3ccccc3[n+]2C)c(OC)c1OC", "CD2F1 mice, L1210 leukemia ip, survival T/C", "98 % of control"),
    ("CN[C@H]1CCc2cc(OC)c(OC)c(OC)c2-c2ccc(OC)c(=O)cc21", "CD2F1 mice, L1210 leukemia ip, survival T/C", "120 % of control"),
    ("O=[N+]([O-])O.[In]", "CD2F1 mice, L1210 leukemia ip, survival T/C", "95 % of control"),
]

###

- Test system: CD2F1 mice, L1210 leukemia ip, survival T/C
- test.method.notes: NCI In Vivo Anticancer Drug Screen. Data for tumor model L1210 Leukemia (intraperitoneal) in CD2F1 (CDF1) mice
- run.parameters: endpoint: median survival time; dose: 25.0 mg/kg/injection; schedule: Q01DX009 (ip); vehicle: saline with Tween-80; higher = longer survival
Toxic doses and inconclusive results are not listed.
measure.name: T/C

# molecule, measurement
data = [
    ("CC(C)c1cc(C(=O)O)c(O)c(C(C)C)c1.CC(C)c1cc(C(=O)O)c(O)c(C(C)C)c1.[Cu]", "96 % of control"),
    ("CN(C=O)C(C(=O)Nc1cccc2c(OC(=O)C(N(C)C=O)(N(C)C=O)N(C)C=O)c(N=Nc3ccc(S(=O)(=O)Nc4nccs4)cc3)cc(N=Nc3ccc(S(=O)(=O)Nc4nccs4)cc3)c12)(N(C)C=O)N(C)C=O (tested in a mixture with another compound)", "106 % of control"),
    ("O=C(Nc1ccc(O)cc1)c1c(O)[nH]c(=S)[nH]c1=O", "106 % of control"),
    ("Cc1cc(Br)c2nsnc2c1[N+](=O)[O-]", "97 % of control"),
    ("CC/C(=C(\\c1ccccc1)c1ccc(OCCN(C)C)cc1)c1ccccc1", "100 % of control"),
]
